B1: F-BAR and double SH3 domains protein 1, residues 467 to 528; numbered along this chain, Q86WN1 (parent)
chain: RALPCPAHVVFRYQAGREDELTITEGEWLEVIEEGDADEWVKARNQHGEVGFVPERYLNFPD

variants of: B1; test: abundance fitness (aPCA) (normalised: wild type 0, dead -1); higher = more abundant; growth selection in yeast, the domain comes from the species named; details: Homo sapiens
Label Satisfied when abundance fitness >= -0.3; otherwise Not satisfied.

Form field: abundance fitness at least -0.3? Entry: E39W
Satisfied

Form field: abundance fitness at least -0.3? Entry: R12L
Satisfied

Form field: abundance fitness at least -0.3? Entry: E39I
Satisfied

Form field: abundance fitness at least -0.3? Entry: A2H
Satisfied

Form field: abundance fitness at least -0.3? Entry: D38K
Satisfied

Form field: abundance fitness at least -0.3? Entry: T22I
Not satisfied

Where do the numbers come from? From the Human Domainome abundance scans (Beltran et al. 2025).
